# maps each entry to its Relative Cross-link Inhibition (at 10 mM)
Tested on: cross-linking of glycated bovine serum albumin (AGE-BSA) to rat tail tendon collagen
Test: Cross-linking Inhibition Assay
Conditions: at 10 mM
RECORDED ENDPOINT: Relative Cross-link Inhibition (at 10 mM) (%)

{"ENTRY SMILES": "Cc1c(CCO)sc[n+]1CC(=O)c1ccc2c(c1)OCCO2.[Br-]", "UNITS TEXT": "%", "READOUT NUMBER": 13}
{"ENTRY SMILES": "Cc1c(CCO)sc[n+]1CC(=O)Nc1c(C(C)C)cccc1C(C)C.[Br-]", "UNITS TEXT": "%", "READOUT NUMBER": 19}
{"ENTRY SMILES": "Cc1c(CCO)sc[n+]1CC(=O)c1ccc2ccccc2c1.[Br-]", "UNITS TEXT": "%", "READOUT NUMBER": 61}
{"ENTRY SMILES": "Cc1sc[n+](CC(=O)c2ccccc2)c1C.[Br-]", "UNITS TEXT": "%", "READOUT NUMBER": 37}

---

System: AGE-BSA crosslinked to collagen
Assay: Cross-link Breaking Assay (sandwich enzyme immunoassay)
Assay type: biochemical
Conditions: anti-BSA antibody; concentration not given

{"ENTRY SMILES": "Cc1c(CCO)sc[n+]1CC(N)=O.[Br-]", "MEASUREMENT TARGET": "AGE-BSA crosslinked to collagen", "Breaking Anti-BSA / %": 57}
{"ENTRY SMILES": "O=C(C[n+]1ccsc1)c1ccccc1.[Br-]", "MEASUREMENT TARGET": "AGE-BSA crosslinked to collagen", "Breaking Anti-BSA / %": 98}
{"ENTRY SMILES": "NC(=O)C[n+]1csc2ccccc21.[Br-]", "MEASUREMENT TARGET": "AGE-BSA crosslinked to collagen", "Breaking Anti-BSA / %": 65}
{"ENTRY SMILES": "CC(=O)C[n+]1ccsc1.[Cl-]", "MEASUREMENT TARGET": "AGE-BSA crosslinked to collagen", "Breaking Anti-BSA / %": 93}

---

Tested on: AGE-BSA crosslinked to collagen
Assay: Cross-link Breaking Assay (sandwich enzyme immunoassay)
Format: biochemical
Conditions: anti-BSA antibody; at 30 mM
Form field: Breaking Anti-BSA (one value per entry).

{"COMPOUND": "Cc1sc[n+](CC(N)=O)c1C.[Br-]", "UNITS TEXT": "%", "Breaking Anti-BSA": 16}
{"COMPOUND": "Cc1csc[n+]1CC(N)=O.[Br-]", "UNITS TEXT": "%", "Breaking Anti-BSA": 44}
{"COMPOUND": "Cc1csc[n+]1CC(=O)c1ccccc1.[Br-]", "UNITS TEXT": "%", "Breaking Anti-BSA": 66}
{"COMPOUND": "Cc1c(CCO)sc[n+]1CC(=O)c1ccccc1.[Br-]", "UNITS TEXT": "%", "Breaking Anti-BSA": 13}
{"COMPOUND": "COC(=O)C[n+]1ccsc1.[Br-]", "UNITS TEXT": "%", "Breaking Anti-BSA": 41}
{"COMPOUND": "COC(=O)C[n+]1cscc1C.[Br-]", "UNITS TEXT": "%", "Breaking Anti-BSA": 51}
{"COMPOUND": "O=C(C[n+]1ccsc1)c1ccc(Br)cc1.[Br-]", "UNITS TEXT": "%", "Breaking Anti-BSA": 25}
{"COMPOUND": "COC(=O)C[n+]1csc(C)c1.[Br-]", "UNITS TEXT": "%", "Breaking Anti-BSA": 27}
{"COMPOUND": "Nc1sc2ccccc2[n+]1N", "UNITS TEXT": "%", "Breaking Anti-BSA": 54}
{"COMPOUND": "O=C(O)C[n+]1csc2ccccc21.[Br-] [3-(carboxymethyl)benzothiazolium bromide]", "UNITS TEXT": "%", "Breaking Anti-BSA": 17.9}
{"COMPOUND": "COC(=O)C[n+]1csc(C)c1C.[Br-]", "UNITS TEXT": "%", "Breaking Anti-BSA": 47}
{"COMPOUND": "COC(=O)C[n+]1csc2ccccc21.[Br-]", "UNITS TEXT": "%", "Breaking Anti-BSA": 37}
{"COMPOUND": "Cc1c(CCO)sc[n+]1Cc1ccccc1.[Cl-]", "UNITS TEXT": "%", "Breaking Anti-BSA": 61}
